Molecular target: Aspartyl aminopeptidase (Homo sapiens) (UniProt Q9ULA0)
Test: human M18 aspartyl aminopeptidase inhibitors, dose response, counter-screen for PfM18AAP inhibitor project, biochemical, QFRET fluorogenic readout, recombinant enzyme (AID 588696)
Settings: recombinant hM18AAP, H-Glu-NHMec fluorogenic cleavage; at 50 µM (top of the series)
The source made the active and inactive calls.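 Rule for the calls: active = inhibition of 30% or more at any tested concentration; inactive = the rest.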
measured_metric: inhibition

Use the examples below as a reference point.
smiles_str	measured_on	measured_result
O=C(O)CCCNc1c2ccccc2nc2ccccc12	Aspartyl aminopeptidase (Homo sapiens) (UniProt Q9ULA0)	inactive
O=C(O)CCCCNc1c2ccccc2nc2ccccc12	Aspartyl aminopeptidase (Homo sapiens) (UniProt Q9ULA0)	inactive
Oc1ccc(CCNc2c3c(nc4ccccc24)CCCC3)cc1O	Aspartyl aminopeptidase (Homo sapiens) (UniProt Q9ULA0)	inactive
COc1ccc(CCNc2ccnc3ccccc23)cc1OC	Aspartyl aminopeptidase (Homo sapiens) (UniProt Q9ULA0)	inactive

Turning now to a further compound:
Entry under review: O=c1ccc2cc(O)c(O)cc2o1 . Reported inhibition?
inactive
